Exercise: state measured melting point for each of the molecules provided.

Entry C#CC(CC(=O)OC(C)(C)C)N=Cc1ccccc1 (stereo not given) has what melting point?
199 to 200 °C

Also check COc1ccc(C2Cc3c(cccc3C(F)(F)F)NC(=O)C2=O)cc1 (stereo not given)
221 to 223 °C

Next record, please: `Cc1cc(SC(C)C)c(NC(=O)CCCCCCCSc2nc3ccccc3s2)c(SC(C)C)n1`
107 to 108 °C

For each listed entry, give its melting point.
1. Nc1ccc(S(=O)(=O)Nc2nnc(CO)s2)cc1
2. Cc1c(C#N)sc(Br)c1Br
3. N#Cc1c(C#N)c(Oc2ccc3ccccc3c2)c(Oc2ccc3ccccc3c2)c(Oc2ccc3ccccc3c2)c1Oc1ccc2ccccc2c1
4. COc1cc2cc(-c3ccccc3F)sc2c(Cl)c1Cl
5. COc1cc(OCCN2C3C=C(c4ccc5ccccc5c4)CC2CC3)c2ncccc2c1 (stereo not given)
6. O=C(O)CC(NC(=O)OCc1ccccc1)C(=O)CNS(=O)(=O)CCc1ccccc1 (stereo not given)

1. 89 to 90 °C
2. 77 to 80 °C
3. 188 to 190 °C
4. 143 to 144 °C
5. 100 to 103 °C
6. 100 to 101 °C

Any idea what melting point was measured for `CCCCS(=O)(=O)c1ccc(CCc2nccn3c(CC#N)ccc23)cc1` ?
188 to 190 °C

----------
ENDPOINT LABEL: melting point

These solved cases illustrate the format of a correct answer.
// melting point lookup, key: `CCC(C)(C)c1c(OCc2ncnn2C)nn2c(-c3ccccc3F)nncc12`
89 to 91 °C

And the next one, COC1=CC(Cl)(OC)NC(C(=O)CC(=O)Nc2ccccc2)=N1 (stereo not given) ?
142 to 144 °C

Follow-up entry: `CCCc1c(OCCCOc2ccc3ccc(OCC(=O)O)cc3c2C(C)=O)ccc(C(C)=O)c1O`
140 to 141 °C

Now consider CC(C)(NC(=O)C(COCc1ccccc1)NC(=O)c1ccccc1)c1ccccc1 (stereo not given) and answer again.
88 to 90 °C

Next:
Returns the measured melting point for the input molecule. Input: COc1ccc(-c2cc3nc(CNCC(C)O)c4ccccc4c3nn2)cc1 (stereo not given)
147 to 149 °C

----------
ENDPOINT LABEL: melting point

Example entries and their recorded answers appear below.
Consider the compound `CCCc1c2occ(C(=O)O)cc-2c(=O)c2cc(C(=O)O)sc12` and give its measured melting point.
> 250 °C

// next record `COC(=O)Nc1nc(Cc2ccccc2)c(C(=O)c2sc(NC(=O)OC)nc2Cc2ccccc2)s1`
189 to 190 °C

Please give the result for O=P1(c2ccc(F)cc2)c2ccccc2CN1c1ccc(Br)cc1 (stereo not given) too.
201 to 205 °C

Also `CCc1nc2cc(OC)c(OC)cc2c(-c2ccc(OC)c(OC)c2)c1C(=O)O` , if possible.
264 to 267 °C

Also need `Cc1cc(C)cc(-c2cc(O)c(Sc3ccccc3CC3CC3)c(=O)o2)c1` , thanks.
168 °C

Can you give me melting point for all of these, one by one?
1. COc1ccc(-n2nc(N3CCN(C(N)=O)CC3)c3ccccc32)cc1
2. CCOc1nn(-c2ccc(C(F)(F)F)cn2)cc1CCCOc1cccc(OC(C)(C)C(=O)O)c1
3. CC1=C(C(=O)c2ccc(C(C)(C)C)cc2)C(=O)C2C=CC=CC2C1=O (stereo not given)
4. COc1cccc(N(CC(=O)OC(C)(C)C)C(=O)CN2C(=O)c3ccccc3C2=O)c1
5. COc1ccccc1-c1cc(C2CCN(Cc3ccc(Cl)cc3)CC2)n[nH]1
6. O=c1ccc(-c2ccc(OC3CCN(C4CCCC4)CC3)nc2)n[nH]1
7. CC(C)(C)c1cc(-c2nnc(NCCO)s2)cc(C(C)(C)C)c1O
8. CCOC(=O)C=Cc1ccc(O)c(C(F)(F)F)c1C(F)(F)F

1. 155 to 157 °C
2. 120 to 121 °C
3. 64 to 65 °C
4. 148 °C
5. 102 to 103 °C
6. 233 to 237 °C
7. 212 to 214 °C
8. 138 to 140 °C

Quick one: give me melting point for each item below, same order please.
1. Cc1ccc2c(-c3ccc(F)cc3)nc(=O)n(C(C)C)c2c1
2. CC(C)NNC(=O)OCc1ccccc1
3. CC(C#N)(COc1ccc(Cl)cc1)S(=O)(=O)Cc1ccc(Cl)cc1 (stereo not given)
4. Cc1cc(CNC(=O)c2nc3scc(COCc4ccc(C(=O)O)cc4)c3c(=O)[nH]2)ccc1F
5. CC(C)(C)OC(=O)N[C@@H](CC(=O)NCCC(=O)OCc1ccccc1)C(=O)OCc1ccccc1
6. CCS(=O)(=O)Nc1ccc(Cc2ccc(NC3=NCCN3)cc2)cc1
7. Cc1c(C(=O)Nc2ccc(Oc3ccccc3)c(C#N)c2)cnn1-c1ccc(F)cc1

["172 to 174 °C", "61 to 62 °C", "119 to 120 °C", "246 to 248 °C", "77 to 78 °C", "178 °C", "182 to 183 °C"]

----------
Please go through the items and note down their melting point.

// solved cases for melting point follow
Request the reported melting point associated with Nc1ccc(C2=NN3C(=O)OCC3Cc3cc4c(cc32)OCO4)cc1 (stereo not given)
173 to 175 °C

Here is the next compound: CC1(C)CC2(CC(C)(C)N1)NC(=O)N(CC(O)COc1ccc(Cc3ccc(OCC(O)CN4C(=O)NC5(CC(C)(C)NC(C)(C)C5)C4=O)cc3)cc1)C2=O (stereo not given)
113 to 118 °C

How about `CN1C(=O)[C@H](NC(=O)CCc2ccc(F)cc2F)N=C(c2ccccc2)c2ccccc21` ?
79 to 81 °C

Param item: `Cc1sc2nc3cccc(C)c3c(=O)n2c1C`
278 to 280 °C

Please do the same for CC1CCC(Oc2cc(F)cc(C(=O)Nc3ccc(OCCN4CCOCC4)c4ccccc34)c2)C1 (stereo not given) as well.
65 to 66 °C

Look at each compound and report its melting point.
1. COc1ccc(C(=O)Nc2cc(OC)c(Cl)cc2OC)cc1F
2. COc1cc(C(=O)N(CCCC(=O)O)c2cccc3ccccc23)cc(OC)c1OC
3. CCOC(=O)c1cnc2nc(C(=O)O)c(OCC)cc2c1O
4. O=C(O[C@@H]1CC[C@H]1Cl)c1ccccc1 (relative stereo)

1: 197 to 199 °C; 2: 143 to 145 °C; 3: 270 to 272 °C; 4: 20 °C

----------
ENDPOINT LABEL: melting point

Request the reported melting point associated with `N#Cc1ccc(F)cc1-c1cc(-c2cnc3nc(C(F)(F)F)cnn23)ccc1F`
200 to 201 °C

Entry to check: `CCOC(=O)c1cc2ccccc2n1S(=O)(=O)c1ccc(C)cc1`
92 to 95 °C

Could I get melting point for every one of these entries?
1. CCOC(=O)c1cc(=O)c2c(OCC(O)COc3ccc(C#N)c(OC)c3)cccc2o1 (centres undefined)
2. CCOc1ccc2nc(SC(C)(C(=O)O)c3ccccc3)sc2c1 (centres undefined)
3. CN(C)c1ccccc1CC(=O)N1C[C@H]2[C@@H](C1)C(c1ccccc1)(c1ccccc1)CC[C@@H]2O
4. Nc1ncnc2c1c(-c1cccc3[nH]ncc13)nn2Cc1oc2ccccc2c(=O)c1-c1ccccc1
5. CCCC1=C(C#N)C(c2cccnc2)c2c[nH]nc2N1 (centres undefined)

1. 143 to 145 °C
2. 152 to 153 °C
3. 160 °C
4. 248 to 252 °C
5. 201 °C

Provide reported melting point for each item, in the same order as listed.
1. CCOC(=O)c1c(C)[nH]c2ccc(OC[C@@H](O)CN)cc12
2. CC(=O)NCCN1CCCc2ccc(C)cc21

66 to 68 °C
99 °C

----------
ENDPOINT LABEL: melting point

Field: example entries. Status: answers known.
Value lookup for melting point; key = O=C(Nc1ccc(-n2nc(C(F)(F)F)cc2C(F)(F)F)cc1)C1CCCO1 (stereo not given)
113 to 116 °C

Same again, this time with `COC(=O)c1ccc(-c2ccc(OC)c(C(C)(C)C)c2)s1`
94 to 95 °C

For `COC(=O)c1ccc(Oc2cccnc2)c(N)c1` then?
101 °C

Proceed to `C=CCC(CC)(CC)C(=O)O[C@H]1C[C@H](O)C=C2C=C[C@H](C)[C@H](CC[C@@H]3C[C@@H](O)CC(=O)O3)[C@H]21`
107 to 108 °C

Others:
Need melting point of `O=c1oc2cc(O)c(F)cc2s1` , thanks.
141 to 143 °C

----------
ENDPOINT LABEL: melting point

Known melting point results, listed for orientation:
Return reported melting point; argument: `COc1ccc(-c2nc(-c3cccn3C)[nH]c2-c2ccc(OC)cc2)cc1`
110 °C

Quick one: `O=C(NCCO)c1csc(C(F)(F)F)n1`
100 to 101 °C

Another molecule: `N#Cc1cc2cc(Br)ccc2[nH]c1=O`
308 to 311 °C

Then this molecule: `N#Cc1cc(N)ccc1N1CCC(N2CCSCC2)CC1`
138 °C

For each of the molecules below, state melting point.
1. O=C(O)CCc1ccc([N+](=O)[O-])cc1
2. CC(C)(ON=C(C(=O)N[C@@H]1C(=O)N[C@@H]1C(N)=O)c1csc(NC(=O)CCl)n1)C(=O)OCc1ccc([N+](=O)[O-])cc1 (relative stereo)
3. Cc1cc(Cl)ccc1N=CN(C)SN(c1ccccc1)c1ccccc1
4. Cc1nc(-n2ccc(O)cc2=O)sc1C(=O)NCc1ccc(F)cc1

1. 162 to 164 °C
2. 144 to 147 °C
3. 78 to 79 °C
4. 280 to 282 °C

Hello, I would appreciate it if you could give melting point for each entry below.
1. CCSc1cc(CC=NOC)ccc1N(CC)c1nc(C)cc(C)n1
2. CC1=NN(C)c2nc(C)c(CCCl)c(=O)n2C1
3. CCn1c(=O)c2[nH]c(/C=C/c3ccc(OC)c(C)c3OC)nc2n(CC)c1=O

["77 to 78 °C", "180 °C", "> 275 °C"]

Please report melting point for every entry that follows.
1. COC(=O)C(C)(C)n1nnc2ccc(Oc3cc(F)c(C(F)(F)F)c(Cl)c3)cc21
2. CC1(C)SC(c2cc(Br)c(O)c(Br)c2)NC1C(=O)O (stereo unspecified)
3. Cc1nc(-n2cnn(Cc3ccc(F)cc3)c2=O)sc1C(=O)NCc1cnn(C)c1
4. CC(=O)N1CCN(c2ccc(NS(C)(=O)=O)cc2)CC1

["76.8 to 80 °C", "154 to 155 °C", "205 to 206 °C", "165 to 167 °C"]

I need melting point for every entry listed below, if you could help.
1. Cc1nn(CCO)c(C)c1Oc1cc(Cl)cc(C#N)c1
2. COc1cccc(CO)c1OCc1ccccc1
3. CCc1nc2c(N)nc3ccccc3c2n1CC1(O)CCOC1 (stereo unspecified)
4. Cc1cc(-c2ccc(Cl)cc2)nc(-c2cccc(-c3ccc(S(N)(=O)=O)s3)c2)n1
5. CN1CCN(c2ccccc2C=C2CCN(c3ccc(C(F)(F)F)cc3)C2=O)CC1
6. COC(=O)[C@H]1CC[C@H](Oc2ccc(C(=O)O)cc2)CC1

["114 to 116 °C", "58 to 60 °C", "245 to 247 °C", "227 °C", "186 to 189 °C", "162 °C"]
